The entries below are paired with their reported EC50.
Test system: downmodulation of MHC-I molecules expressed on the surface of HIV infected SupT1 cells
Assay: cells
Settings: Human immunodeficiency virus 1, SUP-T1, read-out: EC50 for inhibition of MHC-I downmodulation utilizing the R1 parameter

molecule-smiles | test-target | EC50
COc1ccccc1OCC(=O)Nc1nc2c(Cl)cccc2s1 | downmodulation of MHC-I molecules expressed on the surface of HIV infected SupT1 cells | ≥ 10000 nM
CC1(C)Cc2cccc(OC(C)(C)C(=O)Nc3nc4ccccc4s3)c2O1 | downmodulation of MHC-I molecules expressed on the surface of HIV infected SupT1 cells | > 30000 nM
Cc1ccc(N(C(=O)COc2cccc3c2OC(C)(C)C3)c2nc(C)cs2)nn1 | downmodulation of MHC-I molecules expressed on the surface of HIV infected SupT1 cells | > 25000 nM
CN(C(=O)COc1ccccc1C(F)(F)F)c1nc2c(s1)CCCC2 | downmodulation of MHC-I molecules expressed on the surface of HIV infected SupT1 cells | 280 nM
CC1(C)Cc2cccc(OCC(=O)Nc3cccc4cnccc34)c2O1 | downmodulation of MHC-I molecules expressed on the surface of HIV infected SupT1 cells | > 25000 nM
Cc1c(Cl)cccc1OCC(=O)N(C)c1nc2c(s1)CCCC2 | downmodulation of MHC-I molecules expressed on the surface of HIV infected SupT1 cells | > 25000 nM
Cc1ccc(N(C(=O)COc2cccc3c2OC(C)(C)C3)c2ccccc2)nn1 | downmodulation of MHC-I molecules expressed on the surface of HIV infected SupT1 cells | 380 nM
CC1(C)Cc2cccc(OCC(=O)Nc3nc4cc(F)ccc4s3)c2O1 | downmodulation of MHC-I molecules expressed on the surface of HIV infected SupT1 cells | 2000 nM

----------
Assay: in vitro
Settings: human, uninfected SupT1 cells
This listing pairs molecules with measured CC50.

molecule | CC50
Cc1csc(N(C(=O)COc2cccc3c2OC(C)(C)C3)c2cnccn2)n1 | > 100 µM
CC(C)(C)OC(=O)N1CCC(CNC(=O)c2csc(NC(=O)COc3cccc4c3OC(C)(C)C4)n2)C1 (stereo not drawn) | > 90 µM
CC1(C)Cc2cccc(OCC(=O)Nc3nc4c(-c5ccncc5)cccc4s3)c2O1 | > 100 µM
COc1ccccc1OCC(=O)Nc1nc(C)cs1 | > 100 µM
CC1(C)Cc2cccc(OC(Cc3ccccc3)C(=O)Nc3nc4c(s3)CCCC4)c2O1 (racemic) | > 125 µM
COc1ccccc1OCC(=O)Nc1nc2c(Cl)cccc2s1 | > 100 µM
CC1(C)Cc2cccc(OCC(=O)Nc3ccc(C(F)(F)F)nc3)c2O1 | > 100 µM
CC1(C)Cc2cccc(OCC(=O)N(CC(F)(F)F)c3nc4c(s3)COCC4)c2O1 | > 125 µM
CC1(C)Cc2cccc(OCC(=O)Nc3ccccn3)c2O1 | > 100 µM
COc1ccccc1OCC(=O)Nc1nc2c(Br)cccc2s1 | > 90 µM
COc1ccc(NC(=O)COc2cccc3c2OC(C)(C)C3)nn1 | > 100 µM
CN(C(=O)COc1cccc2c1OC(C)(C)C2)c1nc2c(s1)CCCC2 | > 125 µM
CC1(C)Cc2cccc(OCC(=O)Nc3nc(C(=O)N4CC(CO)C4)cs3)c2O1 | > 90 µM
CC1(C)Cc2cccc(OCC(=O)Nc3cccc4cccnc34)c2O1 | > 25 µM
CC1(C)Cc2cccc(OCC(=O)Nc3cccc4cnccc34)c2O1 | > 100 µM
CC1(C)Cc2cccc(OCC(=O)Nc3nc(C(=O)NCC4CCNC4)cs3)c2O1 (stereo not drawn) | > 90 µM
O=C(COc1cccc2[nH]ccc12)N(CC(F)(F)F)c1nc2c(s1)CCCC2 | > 125 µM
CC1(C)Cc2cccc(OCC(=O)N(CC(F)(F)F)c3nc4c(s3)CCCC4)c2O1 | > 125 µM

----------
System: downmodulation of MHC-I molecules expressed on the surface of HIV infected SupT1 cells
Experiment: cells
Conditions: Human immunodeficiency virus 1, SUP-T1, read-out: EC50 for inhibition of MHC-I downmodulation utilizing the R1 parameter
pEC50: −log10 of the molar value.

compound | inequality-symbol | pEC50
COc1ccccc1CCC(=O)Nc1nc2c(s1)CCCC2 [Compound 194] | = | 5.77
CCN(C(=O)COc1cccc2c1OC(C)(C)C2)c1nc2c(s1)CCCC2 [Compound 54] | = | 8.10
Cc1ccc(N(Cc2ccccn2)C(=O)COc2cccc3c2OC(C)(C)C3)nc1 [Compound 48] | = | 4.68
O=C(COc1cccc2c1CCN2)Nc1nc2c(s1)CCCC2 [Compound 135] | = | 7.06
Cc1csc(N(C(=O)COc2cccc3c2OC(C)(C)C3)c2ccccc2C)n1 [Compound 60] | = | 5.42
C=CCN(C(=O)COc1cccc2c1OC(C)(C)C2)c1nc2c(s1)CCCC2 [Compound 56] | = | 9.00
Cc1cccc(OCC(=O)N(C)c2nc3c(s2)CCCC3)c1Br [Compound 117] | = | 6.02
Cc1nc(NC(=O)COc2cccc3c2OC(C)(C)C3)sc1C [Compound 185] | = | 6.70
Cc1ccc(NC(=O)COc2cccc3c2OC(C)(C)C3)cn1 [Compound 11] | < | 4.60

----------
System: downmodulation of MHC-I molecules expressed on the surface of HIV infected SupT1 cells
Test: cells
Details: Human immunodeficiency virus 1, SUP-T1, read-out: EC50 for inhibition of MHC-I downmodulation utilizing the R1 parameter
Measured EC50 of individual entries
observable: EC50 (µM)

molecule-smiles | test-target | observable | inequality-symbol | endpoint-value
Cc1ccncc1OCC(=O)N(C)c1nc2c(s1)CCCC2 | downmodulation of MHC-I molecules expressed on the surface of HIV infected SupT1 cells | EC50 | > | 25
CC1(C)Cc2cccc(OCC(=O)Nc3nc4c(F)cccc4s3)c2O1 | downmodulation of MHC-I molecules expressed on the surface of HIV infected SupT1 cells | EC50 | = | 0.09
CC1(C)Cc2cccc(OCC(=O)Nc3ccc(Cl)nn3)c2O1 | downmodulation of MHC-I molecules expressed on the surface of HIV infected SupT1 cells | EC50 | = | 4.5
CC1(C)Cc2cccc(OCC(=O)N(Cc3ccccn3)c3nc4c(s3)CCCC4)c2O1 | downmodulation of MHC-I molecules expressed on the surface of HIV infected SupT1 cells | EC50 | = | 0.006
Cc1ccc(NC(=O)CCc2cccc3c2OC(C)(C)C3)nn1 | downmodulation of MHC-I molecules expressed on the surface of HIV infected SupT1 cells | EC50 | = | 1.48

----------
Test system: downmodulation of MHC-I molecules expressed on the surface of HIV infected SupT1 cells
Test: cells
Conditions: Human immunodeficiency virus 1, SUP-T1, read-out: EC50 for inhibition of MHC-I downmodulation utilizing the R1 parameter
pEC50: −log10 of the molar value.

compound | inequality-symbol | pEC50
Cc1ccc(N(C(=O)COc2cccc3c2OC(C)(C)C3)c2ccc(C)nn2)cc1 | = | 5.49
CC1(C)Cc2cccc(OCC(=O)Nc3nc(C(=O)NCC4CCNC4)cs3)c2O1 (stereo not drawn) | < | 4.60
CN(C(=O)COc1cccc2c1OC(C)(C)C2)c1nc2c(s1)CCCC2 | = | 8.52
CC1(C)Cc2cccc(OCC(=O)Nc3nc(C4CC4)cs3)c2O1 | = | 6.26
CC1(C)Cc2cccc(OCC(=O)Nc3nc(C(F)(F)F)cs3)c2O1 | = | 6.25
Cc1cnc(NC(=O)COc2cccc3c2OC(C)(C)C3)cn1 | = | 6.30
CC1(C)Cc2cccc(OCC(=O)N(c3ccccc3)c3nc4ccccc4s3)c2O1 | = | 4.54
Cc1ccc(CN(C(=O)COc2cccc3c2OC(C)(C)C3)c2nc3c(s2)CCCC3)nc1 | = | 8.10
COc1cccc(OC)c1OCC(=O)N(C)c1nc2c(s1)CCCC2 | = | 5.59

----------
System: downmodulation of MHC-I molecules expressed on the surface of HIV infected SupT1 cells
Test: cells
Settings: Human immunodeficiency virus 1, SUP-T1, read-out: EC50 for inhibition of MHC-I downmodulation utilizing the R1 parameter
pEC50: −log10 of the molar value.
Label scheme for pEC50: lower than 7 is N, 7 and above is Y.

molecule-smiles | class
CC1(C)Cc2cccc(OCC(=O)Nc3cccc(Br)n3)c2O1 | N
Cc1ccnc(C)c1OCC(=O)N(C)c1nc2c(s1)CCCC2 | N
Cc1csc(N(C(=O)COc2cccc3c2OC(C)(C)C3)c2ccccc2)n1 | Y
CC1(C)Cc2cccc(OCC(=O)Nc3nc4c(s3)CCCC4)c2O1 | Y
COc1ccccc1OCC(=O)Nc1nc(C)c(C)s1 | N
Cc1ccccc1OCC(=O)N(C)c1nc2c(s1)CCCC2 | N
COc1ccccc1OCC(=O)Nc1nc2c(C)cccc2s1 | N
COc1cccc(C)c1OCC(=O)N(C)c1nc2c(s1)CCCC2 | N
COc1ccccc1N(C(=O)COc1cccc2c1OC(C)(C)C2)c1nc(C)cs1 | N
